Data origin, for the record: the supplement of paper PMC7125110

Answer each item with its documented kcat.
B1: glmS ribozyme (parent)
chain: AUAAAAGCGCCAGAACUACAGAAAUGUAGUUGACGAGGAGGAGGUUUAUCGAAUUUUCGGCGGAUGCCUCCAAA

Variants of: B1
assay explanation: kcat; higher = faster cleavage; RNA array
settings: with glucosamine-6-phosphate
Fewer inactive variants are shown than the library holds.
One number for each entry, in s⁻¹.

Guide cases for kcat, answers given:
[[record]]
variant_designation = "A6U U31A U47G C50A A64G C68U"
readout = "kcat"
result_number = "2.33e-05"

[[record]]
variant_designation = "A52U C70A"
readout = "kcat"
result_number = "5.6e-05"

[[record]]
variant_designation = "G13C A53G"
readout = "kcat"
result_number = 0.000174


Working through the 3 variants below one at a time, give kcat for each.
1. G29A U45A
2. G41C U47A
3. A15U C67A

**Result**
[0.0109, 0.000354, 0.00148]
